ASSAY_COMMENT: Pharmacokinetics in beagle dogs
Type: in vivo
EXPERIMENTAL_CONDITIONS: dog, plasma, PO 10 mg/kg, vemurafenib dosed

{"columns": ["COMPOUND", "half-life [h]"],
 "data": [
  ["CCCS(=O)(=O)Nc1ccc(F)c(C(=O)c2c[nH]c3ncc(-c4ccc(Cl)cc4)cc23)c1F [Vemurafenib]", 3.9]
]}

----------
ASSAY_COMMENT: Compound stability in human liver microsomes
Format: in vitro ADME
EXPERIMENTAL_CONDITIONS: pH 7.4, in vivo CLint extrapolated
// values below are reported CLint scaled at 1 μM

{"columns": ["MOLECULE", "CLint scaled at 1 μM [mL/min/kg]"],
 "data": [
  ["CCCS(=O)(=O)Nc1ccc(F)c(C(=O)c2cn(COC(=O)C(N)C(C)C)c3ncc(-c4ccc(Cl)cc4)cc23)c1F.Cl (stereo not drawn) [Ex. 18, hydrochloride]", 5.52],
  ["CCCS(=O)(=O)Nc1ccc(F)c(C(=O)c2cn(COC(=O)[C@@H](N)CC(C)C)c3ncc(-c4ccc(Cl)cc4)cc23)c1F.Cl [Ex. 23, hydrochloride]", 15.4],
  ["CCCS(=O)(=O)Nc1ccc(F)c(C(=O)c2cn(C(C)OC(=O)C(C)C)c3ncc(-c4ccc(Cl)cc4)cc23)c1F (stereo not drawn)", 51.7],
  ["CCCS(=O)(=O)N(C(=O)c1ccccc1)c1ccc(F)c(C(=O)c2c[nH]c3ncc(-c4ccc(Cl)cc4)cc23)c1F", 29.2],
  ["CCCS(=O)(=O)N(C(=O)OCC)c1ccc(F)c(C(=O)c2c[nH]c3ncc(-c4ccc(Cl)cc4)cc23)c1F", 60.2],
  ["CCCS(=O)(=O)Nc1ccc(F)c(C(=O)c2cn(COC(=O)[C@@H](N)C(C)CC)c3ncc(-c4ccc(Cl)cc4)cc23)c1F.Cl (stereo partly drawn) [Ex. 22, hydrochloride]", 23.9]
]}

----------
ASSAY_COMMENT: Pharmacokinetics in beagle dogs
Type: in vivo
EXPERIMENTAL_CONDITIONS: dog, plasma, IV 1 mg/kg, vemurafenib dosed

{"columns": ["MOLECULE", "AUC(0-t)"],
 "data": [
  ["CCCS(=O)(=O)Nc1ccc(F)c(C(=O)c2c[nH]c3ncc(-c4ccc(Cl)cc4)cc23)c1F [Vemurafenib]", "4880 ng·h/mL"]
]}

----------
ASSAY_COMMENT: Pharmacokinetics in beagle dogs
Assay type: in vivo
EXPERIMENTAL_CONDITIONS: dog, plasma, IV 1 mg/kg, vemurafenib dosed
Procedure: Compounds disclosed herein are prodrugs. […] However, the prodrug compounds are modified in vivo to produce a parent compound that has known inhibitory activities against certain protein kinases. Kinase inhibition activity of prodrug compounds is established by quantitating the blood or plasma levels of parent compound after prodrug administration. […] Selected compounds of the invention and Vemurafenib were assessed in pharmacokinetic studies in mice, rats, dogs or monkeys. […]

{"columns": ["MOLECULE", "RESULT_UNITS", "half-life"],
 "data": [
  ["CCCS(=O)(=O)Nc1ccc(F)c(C(=O)c2c[nH]c3ncc(-c4ccc(Cl)cc4)cc23)c1F [Vemurafenib]", "h", 1.59]
]}

----------
ASSAY_COMMENT: Pharmacokinetics in SD rats
Format: in vivo
EXPERIMENTAL_CONDITIONS: Sprague-Dawley, rat, plasma, PO 10 mg/kg, vemurafenib dosed

{"columns": ["SMILES_STRUCTURE", "RESULT_UNITS", "AUC(0-t)"],
 "data": [
  ["CCCS(=O)(=O)Nc1ccc(F)c(C(=O)c2c[nH]c3ncc(-c4ccc(Cl)cc4)cc23)c1F", "µg·h/mL", 261]
]}
